Tested on: human glial U-343 cells
assay-comment: IL-6 ELISA, basal secretion of IL-6 into conditioned medium
Format: cell-based
cond: inhibitor 20 μM, 24 hours, serum-free medium, untreated = 100%, read-out: Extracellular IL-6 concentration, % of untreated cells
// activity at 20 µM lookup, one value per entry
Write the number in % without appending the unit.

Known results for molecules:
molecule: O=C(N[C@H](Cc1ccccc1)C(=O)N1CCCC1C(=O)c1nc2ccccc2s1)OCc1ccccc1 (stereo partly drawn) [Example 1, 2-[Cbz-L-Phe-L-Pro]Benzothiazole]
readout-kind: activity at 20 µM
recorded-measurement: 14.3
--
molecule: O=C(N[C@@H](Cc1ccccc1)C(=O)N1CCC[C@H]1C(=O)c1nccs1)OCc1ccccc1 [Example 4, 2-[Cbz-L-Phe-L-Pro]Thiazole]
readout-kind: activity at 20 µM
recorded-measurement: 14.6

Please turn your attention to the following entry.
[Q] Query activity at 20 µM for C[C@H](NC(=O)[C@@H](Cc1ccccc1)NC(=O)OCc1ccccc1)C(=O)c1nc2ccccc2s1 [Example 3, 2-[Cbz-L-Phe-L-Ala]Benzothiazole]
[A] 35.2

* * *

System: human glial U-343 cells
assay-comment: IL-6 ELISA, basal secretion of IL-6 into conditioned medium
Assay type: cell-based
cond: inhibitor 20 μM, 24 hours, serum-free medium, untreated = 100%, read-out: Extracellular IL-6 concentration, % of untreated cells
Label rule, in plain words: activity at 20 µM of 30% and up is 1, under 30% is -1.

As a guide, the following entries are already answered.
molecule: O=C(O)C[C@H](NC(=O)OCc1ccccc1)C(=O)N1CCC[C@H]1C(=O)c1nc2ccccc2s1 [Example 6, 2-[Cbz-L-Asp-L-Pro]Benzothiazole]
target-under-test: human glial U-343 cells
label: 1

molecule: NCCCC[C@H](NC(=O)OCc1ccccc1)C(=O)N1CCC[C@H]1C(=O)c1nc2ccccc2s1 [Example 8, 2-[Cbz-L-Lys-L-Pro]Benzothiazole]
target-under-test: human glial U-343 cells
label: 1

molecule: C=CCOC(=O)N[C@@H](Cc1ccccc1)C(=O)N1CCC[C@H]1C(=O)c1nc2ccccc2s1 [Example 7, 2-[Aloc-L-Phe-L-Pro]Benzothiazole]
target-under-test: human glial U-343 cells
label: -1

[Q] Assess whether reported activity at 20 µM for O=C(N[C@@H](Cc1ccccc1)C(=O)N1CCC[C@H]1C(=O)c1ccc[nH]1)OCc1ccccc1 sits at 30% or higher.
[A] 1

[Q] Hi, just wondering whether C[C@H](NC(=O)OCc1ccccc1)C(=O)N1CCC[C@H]1C(=O)c1nccs1 [Example 10, 2-[Cbz-L-Ala-L-Pro]Thiazole] shows activity at 20 µM of 30% or higher.
[A] 1

[Q] Please indicate if the recorded activity at 20 µM for CC(C)(C)OC(=O)N[C@@H](Cc1ccccc1)C(=O)N1CCC[C@H]1C(=O)c1nc2ccccc2s1 [Example 9, 2-[Boc-L-Phe-L-Pro]Benzothiazole] meets or exceeds 30%.
[A] 1

[Q] Does the reported activity at 20 µM for C[C@@H](NC(=O)OCc1ccccc1)C(=O)N1CCC[C@H]1C(=O)c1nc2ccccc2s1 [Example 2, 2-[Cbz-L-Ala-L-Pro]Benzothiazole] fall at or above the 30% mark?
[A] -1

[Q] Textbook exercise: given the entry N=C(N)NCCC[C@H](NC(=O)OCc1ccccc1)C(=O)N1CCC[C@H]1C(=O)c1nc2ccccc2s1 [Example 5, 2-[Cbz-L-Arg-L-Pro]Benzothiazole] , state whether its activity at 20 µM is greater than or equal to 30%.
[A] 1
